# System: H1975OR
# ASSAY INFO: CCK-8 tumor cell proliferation, H1975OR
# Assay type: cell-based
# MEASUREMENT CONTEXT: H1975OR cells (Osimertinib resistant), 72 hours
We begin with a simple list: items and their reported log10 IC50.
Please note: log10 values; quantity IC50; unit µM.

Completed entries (count: 8):
MOLECULE	TARGET OR SYSTEM	RECORDED MEASUREMENT
COc1cc(N2CCN(CCCCCCCCCCCCNC(=O)CC34CC5CC(CC(C5)C3)C4)CC2)ccc1Nc1ncc2c(C)cc(=O)n(-c3cccc(NCC4CNC4)c3)c2n1 [ZX-HYT-44]	H1975OR	0.91
COc1cc(N2CCN(CCCCCCCCCCCCNC(=O)CC34CC5CC(CC(C5)C3)C4)CC2)ccc1Nc1ncc2c(C)cc(=O)n(-c3cccc(NC4CNC4)c3)c2n1 [ZX-HYT-45]	H1975OR	0.37
COc1cc(N2CCN(CCCCCCCCN)CC2)ccc1Nc1ncc2c(C)cc(=O)n(-c3cccc(NC(=O)C4CC4)c3)c2n1 [ZX-HYT-31]	H1975OR	-0.66
COc1cc(N2CCN(CCCCCCCCNC(=O)C3C[C@H]4C=C[C@@H]3C4)CC2)ccc1Nc1ncc2c(C)cc(=O)n(-c3cccc(NC(=O)C4CC4)c3)c2n1 (some centres unmarked) [ZX-HYT-60]	H1975OR	-0.97
COc1cc(N2CCN(CCCCCCCCNC(=O)C3CCC(F)(F)CC3)CC2)ccc1Nc1ncc2c(C)cc(=O)n(-c3cccc(NC(=O)C4CC4)c3)c2n1 [ZX-HYT-34]	H1975OR	-0.60
COc1cc(N2CCN(CCCCCCCCCCCCNC(=O)CC34CC5CC(CC(C5)C3)C4)CC2)ccc1Nc1ncc2c(C)cc(=O)n(-c3cccc(NC(=O)C4CCCCC4)c3)c2n1 [ZX-HYT-13]	H1975OR	-0.67
COc1cc(N2CCN(CCCCCCCCNC(=O)[C@@]34CC5C[C@@](C)(C[C@@](C)(C5)C3)C4)CC2)ccc1Nc1ncc2c(C)cc(=O)n(-c3cccc(NC(=O)C4CC4)c3)c2n1 [ZX-HYT-32]	H1975OR	-0.68
CCC(=O)Nc1cccc(-n2c(=O)cc(C)c3cnc(Nc4ccc(N5CCN(CCCCCCCCNC(=O)CC67CC8CC(CC(C8)C6)C7)CC5)cc4OC)nc32)c1 [ZX-HYT-49]	H1975OR	-1.46

--- query ---
Q. For the molecule shown here, COc1cc(N2CCN(CCCCCCCCCCCCNC(=O)CC34CC5CC(CC(C5)C3)C4)CC2)ccc1Nc1ncc2c(C)cc(=O)n(-c3cccc(N)c3)c2n1 [ZX-HYT-17] , give the reported log10 IC50.
A. -1.64
